# System: THRa:RXRa (NR concentration 90 nM, RXRa partner concentration 90 nM)
# ASSAY_INFO: PBM binding z-score (relative to random genomic background probes); higher = stronger binding; sequences stand for … in GC…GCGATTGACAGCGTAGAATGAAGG
Is PBM binding z-score at least 2? Then rule met. If not, rule not met.

Solved cases (4 shown):
chain_sequence=TCTTGTAGATCAACTGGAGGTTAAGAAAGATCGA group_label="rule not met"
chain_sequence=GCTAGTTGGTCAGTAAAGGGTCACACACCGGTCG group_label="rule met"
chain_sequence=CCTAGCAGGCCAATCTGGGTGACTCAAGGCTTGA group_label="rule met"
chain_sequence=TAGCCTAGGTCATGCGCCAGTATACCACGCGAAC group_label="rule met"

query: Check if PBM binding z-score >= 2 (inclusive). Item: ATCTCTAGGTAACAAGTTCAGGGAAAGAGAGGAC
result: rule not met

query: Does CCACGGAGGACAGAAGGTCAGAGCTGTCCGCTTT have a reported PBM binding z-score of at least 2?
result: rule met

query: Check if PBM binding z-score >= 2 (inclusive). Item: CCTGCTAGGTCAATGGTCAGCTACAGCAGCTCGC
result: rule met

query: In plain terms: is recorded PBM binding z-score at least 2 for TCTAGTTGGACAAAGGTCACACACTCGAAATGCG ?
result: rule met

query: I'd appreciate it if you could say whether GCTCGGAGGACAAGGCCAGAGCTTTGTCCGTAGA has PBM binding z-score at least equal to 2.
result: rule not met

query: Answer whether PBM binding z-score of AGTCAAAGTTCATCTAGTTAACGTAAGATATGCT is greater than or equal to 2.
result: rule met

* * *

Readings of PBM binding z-score for the listed sequences
# Test system: RARa homodimer (NR concentration 270 nM)
# ASSAY_INFO: PBM binding z-score (relative to random genomic background probes); higher = stronger binding; sequences stand for … in GC…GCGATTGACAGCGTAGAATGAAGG

Example cases with answers are listed next.
chain_sequence=CGCCCAAGGTCAATGCTAGGTCAGTGAAAGCATT target_desc="RARa homodimer (NR concentration 270 nM)" readout_name="PBM binding z-score" result=0.81
chain_sequence=CCTAGCAGGCCAATCTGTGTCACTCAAGGCTTGA target_desc="RARa homodimer (NR concentration 270 nM)" readout_name="PBM binding z-score" result=-0.52
chain_sequence=TCTGCTAGGTCAACGATGGTCAGCTAGTCTGCTA target_desc="RARa homodimer (NR concentration 270 nM)" readout_name="PBM binding z-score" result=-1.08
chain_sequence=GCTAGCAGGCGATTTGGGTCACTCAATGACGGGC target_desc="RARa homodimer (NR concentration 270 nM)" readout_name="PBM binding z-score" result=-0.848
chain_sequence=ATCTCTAGGAAAAGATAGTTCAGTGAATGCAAAT target_desc="RARa homodimer (NR concentration 270 nM)" readout_name="PBM binding z-score" result=1.07

The recorded PBM binding z-score with RARa homodimer (NR concentration 270 nM) for CCTCCTGGGCCACGAAAGGTCATTGATTCAGTGA was 0.516

# lookup: GCAGACAGGTGAAACGCAGGAAACTCAGGGTGGC on RARa homodimer (NR concentration 270 nM), PBM binding z-score = -0.25

Measured PBM binding z-score for this entry CGTCCAAGGTCAGGGAGGTCAGTGAATGCCGAGT on RARa homodimer (NR concentration 270 nM): 2.15

The measured PBM binding z-score that AGTCACAGTTCATCTAGGTAACGTAAGATATGCT showed for RARa homodimer (NR concentration 270 nM) is 0.582

Noted PBM binding z-score for ACTCGGAGCACAAAGGTCAGAGCTACGCCAGTGA , tested on RARa homodimer (NR concentration 270 nM): 0.544

The value of PBM binding z-score recorded for CGAACTAGGTCCTCCAGGACAGTGAATACATTGA when tested on RARa homodimer (NR concentration 270 nM) reads -0.913

The measured PBM binding z-score that GGAAGGAGGGCAAAGTTGATAGCATCTGTCGACG showed for RARa homodimer (NR concentration 270 nM) is 1.19

Test item GCATATAGGTAATAGAAGGTGAAAGTCCGATTGT ; RARa homodimer (NR concentration 270 nM); reported PBM binding z-score was 0.689

Summary line: ATCTCTAGGTAAAGAAAGTTCAGTGAATGCAAAT , RARa homodimer (NR concentration 270 nM), reported PBM binding z-score = 1.41

* * *

# Tested on: PPARg:RXRa 30nM:10nM, anti-RXR (NR concentration 30 nM, RXRa partner concentration 10 nM)
# ASSAY_INFO: PBM binding z-score (relative to random genomic background probes); higher = stronger binding; sequences stand for … in GC…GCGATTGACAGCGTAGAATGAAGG
Assign label 1 to entries whose PBM binding z-score meets or exceeds 1; assign label 0 to the rest.

Check out these entries, answers already filled in.
chain_sequence=CCTTACGGGTCACTCCAGGGTATAGCATCGGAGT group_label="label 1"
chain_sequence=CCGACTGGGGTAAGGTTACCATAACGCACAGCCA group_label="label 0"
chain_sequence=TGAATAAGGTTAAAGATCAGGGAACGTGGCGTCG group_label="label 1"
chain_sequence=CGAACTTGGTCAAGGACAGTGAATCTCCGCACGC group_label="label 0"
chain_sequence=CGTCCAAGGTCAAAGGTTAGTGAAGAGATGACGG group_label="label 1"

query: Tell me whether PBM binding z-score is at least 1 here: CCTACTGGGCCATTCAGAGGTCATTAATCATATG
result: label 0

* * *

# Test system: PPARg:RXRa 30nM:10nM, anti-RXR (NR concentration 30 nM, RXRa partner concentration 10 nM)
# ASSAY_INFO: PBM binding z-score (relative to random genomic background probes); higher = stronger binding; sequences stand for … in GC…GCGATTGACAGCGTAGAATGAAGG
Binned PBM binding z-score; ranges: 1: < 0.5; 2: ≥ 0.5 and < 3; 3: ≥ 3

Known results for sequences:
chain_sequence=GCTTATGGGTCAAAGGTTATAGCATGAATAGAAT group_label=3
chain_sequence=CCAACTAGGTCACAGAGGTCAAAGTCCGTGCGTA group_label=3
chain_sequence=GCTAGTTGGTCAGCAAAAGGTCACACACCGGTCG group_label=2

query: Hi there! Could you help me figure out the category for CAAACTAGGTCACGAAATGTCAAAGTCGAATGAC please?
result: 3

* * *

# Tested on: LXRb homodimer (NR concentration 270 nM)
# ASSAY_INFO: PBM binding z-score (relative to random genomic background probes); higher = stronger binding; sequences stand for … in GC…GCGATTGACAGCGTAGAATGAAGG
Kindly return Condition met if reported PBM binding z-score is no lower than 0.6; return Condition not met if it is lower.

chain_sequence=CCACACAGGTGAGAAGGTAACTCAGCCTCGATTA target_desc="LXRb homodimer (NR concentration 270 nM)" group_label="Condition not met"
chain_sequence=CCTACCGGGCCAAGGTCATTGATCAGTCAAAGCA target_desc="LXRb homodimer (NR concentration 270 nM)" group_label="Condition not met"
chain_sequence=CCTTACGGGTCACTGCCAGGTTATAGCATTTGGA target_desc="LXRb homodimer (NR concentration 270 nM)" group_label="Condition not met"
chain_sequence=TCTATTACTTGAAGGGCAACCGACGAGTCCGTTT target_desc="LXRb homodimer (NR concentration 270 nM)" group_label="Condition met"

From here, focus on the item given below.
query: Hi, just wondering whether CAAACTAGGTCAAAGGACAAAGTCGAGCCAACCA shows PBM binding z-score of 0.6 or higher.
result: Condition met

* * *

# System: PPARg:RXRa (NR concentration 180 nM, RXRa partner concentration 90 nM)
# ASSAY_INFO: PBM binding z-score (relative to random genomic background probes); higher = stronger binding; sequences stand for … in GC…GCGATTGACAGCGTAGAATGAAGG
READOUT_NAME: PBM binding z-score
Format: numeric value only, no unit, no commentary.

# annotated cases, reported PBM binding z-score shown
chain_sequence=CCATACAGGTGAAAGGTAACTCAGTCTGGTACGC result_number=7.97
chain_sequence=TAGCCTAGGTCATGGGCCGGTATACCACGCGAAC result_number=3.35

Item AGTCAAAGTTCACTAGGTAATGTAAGATTCAGCT was tested on PPARg:RXRa (NR concentration 180 nM, RXRa partner concentration 90 nM); the reported PBM binding z-score is 7.06

Entry TCATATAGGTAATACAGGGGAAAGTCGGCATCTA , tested on PPARg:RXRa (NR concentration 180 nM, RXRa partner concentration 90 nM), has a reported PBM binding z-score of 1.01

Form field PBM binding z-score for item CAAACTAGGTCAAGGTCAAGGTCGGTTTGTGCCA on PPARg:RXRa (NR concentration 180 nM, RXRa partner concentration 90 nM): 9.57
